// TGI lookup, one value per entry
# System: CAKI-1 renal
# ASSAY_SUMMARY: NCI tumour cell line growth inhibition, 48 h

Past entries and their recorded results:
// lookup TGI for CCN(CC)c1ccc2cc(C(N)=O)c(=Nc3ccc(F)cc3)oc2c1
> 100 µM

Requested read-out: TGI. Entry: COc1ccc(CCCN2c3ccccc3Sc3ccccc32)cc1
> 100 µM

Item under review: CC1=NN(C(=O)Cc2ccccc2)C(=O)/C1=C\c1ccccc1O . Reported TGI?
> 100 µM

New cases:
Can you look up the measured TGI of CCN(CC)C1Oc2cc3c(cc2C(c2cccc(OC)c2O)C1C)OCO3 (stereo not drawn) for me?
27 µM

Endpoint output: TGI of COc1ccc(C(=O)/C=C/c2cc(-c3ccc4c(c3)OCO4)n[nH]2)cc1OC . Value?
4.33 µM

Need TGI, item Cc1ccc(/C=C/C(=O)c2ccc([N+](=O)[O-])cc2)cc1
> 100 µM

Which measured TGI value corresponds to COC12C=CC(CC1)C(C)(C)C2OS(C)(=O)=O (stereo not drawn) ?
> 100 µM
